experiment: antivirals protecting cells from dengue CPE – CPE readout, HTS (AID 540333); conditions: Dengue virus CPE inhibition in host cells, at 20 µM; stronger effect = higher value
The whole screen tested about 10,000 compounds, of which about 320 (3.2%) were called active. The entries come from a sample that favours actives as a whole.

[
  {
    "COMPOUND": "CC(=O)Nc1ccc(S(=O)(=O)NCCSCc2cccc(Cl)c2)cc1",
    "CPE inhibition": "1.06% (inactive)"
  },
  {
    "COMPOUND": "COc1ccc(CNc2nc(-c3ccccc3)nn2C(=O)c2ccc([N+](=O)[O-])cc2)cc1",
    "CPE inhibition": "inactive"
  },
  {
    "COMPOUND": "N/C(=N\\OCC(=O)Nc1ccccc1)c1nonc1N",
    "CPE inhibition": "0.24% (inactive)"
  },
  {
    "COMPOUND": "COc1cc(/C=C/C(=O)Nc2nnc(CC(C)C)s2)cc(OC)c1OC",
    "CPE inhibition": "1.95% (inactive)"
  },
  {
    "COMPOUND": "COc1cc(SC)ccc1C(=O)NCCc1ccccc1",
    "CPE inhibition": "0.785% (inactive)"
  },
  {
    "COMPOUND": "NNC(=O)CNC(c1ccccc1)c1cc(Br)ccc1NC(=O)c1cccc(Cl)c1 (stereo not drawn)",
    "CPE inhibition": "0.305% (inactive)"
  },
  {
    "COMPOUND": "CC(=O)NC(Cc1ccccc1)C(=O)OCC(=O)c1ccc(Br)cc1 (stereo not drawn)",
    "CPE inhibition": "inactive"
  },
  {
    "COMPOUND": "Cc1ccc(OCC(=O)NCC(=O)Nc2ccc(F)c(F)c2F)c([N+](=O)[O-])n1",
    "CPE inhibition": "0.32% (inactive)"
  },
  {
    "COMPOUND": "COc1ccc(NS(=O)(=O)c2ccc3nc(COc4ccc(Cl)c(C)c4)[nH]c3c2)cc1",
    "CPE inhibition": "1.16% (inactive)"
  },
  {
    "COMPOUND": "COc1ccccc1NS(=O)(=O)c1cccc(C(=O)N/N=C/c2ccc3c(c2)OCCO3)c1",
    "CPE inhibition": "inactive"
  },
  {
    "COMPOUND": "Cc1nn(C)c(C(=O)NCc2ccc(Cl)cc2)c1Cl",
    "CPE inhibition": "0.24% (inactive)"
  },
  {
    "COMPOUND": "Cc1noc(C)c1CN(C(=S)NC(C)C)c1ccccc1",
    "CPE inhibition": "inactive"
  },
  {
    "COMPOUND": "O=C(CSc1nc2ccccc2[nH]1)Nc1ccc2c(c1)CCC2",
    "CPE inhibition": "2.09% (inactive)"
  }
]

Entry source: PubChem BioAssay AID540333
